# Tested on: Sindbis virus
# protocol: microbe, parasite or virus in culture
# Assay type: cell-based
# run_conditions: Vero
measurement_type: EC50

Req: Name the reported EC50 value associated with the compound CC(C)COC(=O)C(O)Cn1cnc2c(N)ncnc21 (racemic) [Compound 7]
Resp: > 400 µg/mL

Req: Same read-out for CCCCOC(=O)C(O)Cn1cnc2c(N)ncnc21 (racemic) [Compound 5] ?
Resp: 150 µg/mL

Req: Same read-out for CCCCCCCCOC(=O)C(O)Cn1cnc2c(N)ncnc21 (racemic) [Compound 9] ?
Resp: 30 µg/mL

Please give EC50, item by item, for the list that follows.
1. Nc1ncnc2c1ncn2CC(O)C(=O)OC1CCCCC1 (racemic) [Compound 11]
2. COC(=O)C(O)Cn1cnc2c(N)ncnc21 (racemic) [Compound 1]

Resp:
> 100 µg/mL
> 400 µg/mL

* * *

# protocol: Test 3: cytotoxicity, PRK cells
# Type: cell-based
# run_conditions: rabbit, Table 4, read-out: Minimum cytotoxic concentration (MCC)
measurement_type: MCC

Req: Name the reported MCC value associated with the molecule CCC(C)OC(=O)C(O)Cn1cnc2c(N)ncnc21 (racemic)
Resp: > 400 µg/mL

Req: Same read-out for Nc1ncnc2c1ncn2C[C@H](O)CO [(S)--DHPA, 9-(2,3-dihydroxypropyl)adenine, reference compound] ?
Resp: > 400 µg/mL

Req: Same read-out for Nc1ncnc2c1ncn2CC(O)CO (racemic) [(RS)--DHPA, 9-(2,3-dihydroxypropyl)adenine, reference compound] ?
Resp: > 400 µg/mL

Req: Same read-out for CC(C)COC(=O)C(O)Cn1cnc2c(N)ncnc21 (racemic) ?
Resp: > 400 µg/mL

Please give MCC, item by item, for the list that follows.
1. COC(=O)C(O)Cn1cnc2c(N)ncnc21 (racemic)
2. CC(C)OC(=O)C(O)Cn1cnc2c(N)ncnc21 (racemic)
3. COCCOC(=O)C(O)Cn1cnc2c(N)ncnc21 (racemic)

Resp:
1: > 400 µg/mL; 2: > 400 µg/mL; 3: > 400 µg/mL

* * *

Record form. Attribute: EC50. Fill in for each entry.
# System: Reovirus 1
# protocol: Test 1: inhibition of virus cytopathic effect, reovirus 1 in Vero B cells
# Format: cell-based
# run_conditions: Mammalian orthoreovirus 1; Reovirus 1, Vero B cells; Table 2; read-out: MIC50
Give bare numbers, in µg/mL.

Req: Name the reported EC50 value associated with the compound COC(=O)[C@H](O)Cn1cnc2c(N)ncnc21 [CH3 (R)]
Resp: 70

Req: Same read-out for Nc1ncnc2c1ncn2C[C@H](O)CO [(S)--DHPA, 9-(2,3-dihydroxypropyl)adenine, reference compound] ?
Resp: 70

Req: Same read-out for COC(=O)[C@@H](O)Cn1cnc2c(N)ncnc21 [CH3 (S)] ?
Resp: 300

Req: Same read-out for CCOC(=O)[C@@H](O)Cn1cnc2c(N)ncnc21 [C2 H5 (S)] ?
Resp: 70

# input for lookup
Req: Name the reported EC50 value associated with the compound COC(=O)C(O)Cn1cnc2c(N)ncnc21 (racemic)
Resp: 300

* * *

# System: Polio 1
# protocol: microbe, parasite or virus in culture
# Format: cell-based
# run_conditions: HeLa, read-out: MIC50
Record form. Attribute: EC50. Fill in for each entry.

For orientation, consider the following solved cases.
Req: Name the reported EC50 value associated with the compound CCOC(=O)[C@@H](O)Cn1cnc2c(N)ncnc21 [C2 H5 (S)]
Resp: > 400 mg/L

Req: Same read-out for Nc1ncnc2c1ncn2C[C@H](O)CO [(S)--DHPA, 9-(2,3-dihydroxypropyl)adenine, reference compound] ?
Resp: > 400 mg/L

Req: Same read-out for COC(=O)[C@H](O)Cn1cnc2c(N)ncnc21 [CH3 (R)] ?
Resp: > 400 mg/L

Req: Same read-out for COC(=O)[C@@H](O)Cn1cnc2c(N)ncnc21 [CH3 (S)] ?
Resp: > 400 mg/L

# input for lookup
Req: Name the reported EC50 value associated with the compound COC(=O)C(O)Cn1cnc2c(N)ncnc21 (racemic)
Resp: > 400 mg/L

* * *

# protocol: Test 3: cytotoxicity, Vero cells
# Assay type: cell-based, green monkey
# run_conditions: monkey, Table 4, read-out: Minimum cytotoxic concentration (MCC)
Record form. Attribute: MCC. Fill in for each entry.

For orientation, consider the following solved cases.
Req: Name the reported MCC value associated with the compound CCC(C)OC(=O)C(O)Cn1cnc2c(N)ncnc21 (racemic)
Resp: > 400 µg/mL

Req: Same read-out for CC(C)OC(=O)C(O)Cn1cnc2c(N)ncnc21 (racemic) ?
Resp: > 400 µg/mL

Please give MCC, item by item, for the list that follows.
1. COCCOC(=O)C(O)Cn1cnc2c(N)ncnc21 (racemic)
2. Nc1ncnc2c1ncn2CC(O)C(=O)OC1CCCCC1 (racemic)
3. CCCCCCCCOC(=O)C(O)Cn1cnc2c(N)ncnc21 (racemic)
4. Nc1ncnc2c1ncn2C[C@H](O)CO [(S)--DHPA, 9-(2,3-dihydroxypropyl)adenine, reference compound]
5. CCCOC(=O)C(O)Cn1cnc2c(N)ncnc21 (racemic)
6. Nc1ncnc2c1ncn2CC(O)CO (racemic) [(RS)--DHPA, 9-(2,3-dihydroxypropyl)adenine, reference compound]

Resp:
1: > 400 µg/mL; 2: 100 µg/mL; 3: 200 µg/mL; 4: > 400 µg/mL; 5: 400 µg/mL; 6: > 400 µg/mL

* * *

# protocol: Test 3: cytotoxicity, PRK cells
# Type: cell-based
# run_conditions: rabbit, Table 4, read-out: Minimum cytotoxic concentration (MCC)
Record form. Attribute: MCC. Fill in for each entry.
One number for each entry, in µg/mL.

For orientation, consider the following solved cases.
Req: Name the reported MCC value associated with the compound Nc1ncnc2c1ncn2CC(O)C(=O)OC1CCCCC1 (racemic) [Compound 11]
Resp: 100

Req: Same read-out for CC(C)CCOC(=O)C(O)Cn1cnc2c(N)ncnc21 (racemic) [Compound 8] ?
Resp: 400

Req: Same read-out for CCCOC(=O)C(O)Cn1cnc2c(N)ncnc21 (racemic) [Compound 3] ?
Resp: 100

Req: Same read-out for CCCCCCCCOC(=O)C(O)Cn1cnc2c(N)ncnc21 (racemic) [Compound 9] ?
Resp: 100

# input for lookup
Req: Name the reported MCC value associated with the compound CCCCOC(=O)C(O)Cn1cnc2c(N)ncnc21 (racemic) [Compound 5]
Resp: 200

The origin of these recorded values is patent US4605658A.
